assay-comment: NCI Yeast Anticancer Drug Screen. Data for the bub3 strain (AID 167)
test-settings: S. cerevisiae bub3 mutant strain, at 50.0 µM (retest, dose inferred, filed as 5.0), active compounds read high
Description: Growth inhibition of yeast strains with defined genetic alterations is measured as a screen for potential anti-cancer activity. Selected strains with alterations in DNA damage repair or cell cycle control were exposed to compounds and growth inhibition was measured relative to vehicle treated controls. The strain used in this assay is bub3
Compounds without any hit were thinned out: in the full panel of roughly 79,000, 15% have a hit.
reported-endpoint: growth inhibition (%)
Only the number, expressed in %, is required.

- molecule: "O=[N+]([O-])c1ccc(N(CCO)CCO)c2c1no[n+]2[O-]"
  reported-endpoint: "growth inhibition"
  assay-result: 40
- molecule: "CN(C)c1ccc(N=Nc2cccc(C(=O)[O-])c2)cc1.CN(C)c1ccc(N=Nc2cccc(C(=O)[O-])c2)cc1.NC1CCCCC1N.O=[N+]([O-])O.[Pt+4]"
  reported-endpoint: "growth inhibition"
  assay-result: 98

Q: For the molecule CC1(C)CC2(c3ccccc3)CC(c3ccccc3)C1C(C(=O)O)C2C(=O)O (stereo not drawn) , what growth inhibition is on record?
Result: 96

----------
assay-comment: NCI Yeast Anticancer Drug Screen. Data for the mec2-1 strain (AID 157)
test-settings: S. cerevisiae mec2-1 strain, at 50.0 µM, active compounds read high
Protocol: Growth inhibition of yeast strains with defined genetic alterations is measured as a screen for potential anti-cancer activity. Selected strains with alterations in DNA damage repair or cell cycle control were exposed to compounds and growth inhibition was measured relative to vehicle treated controls. The strain used in this assay is mec2-1
The panel holds about 79,000 compounds, 15% with a hit somewhere; the sample as a whole holds those more often.
// reported growth inhibition per item
Only the number, expressed in %, is required.

Some compounds with known growth inhibition results, for comparison:
- compound: "N#CNc1nnnn1-c1ccccc1 (tested in a mixture with another compound)"
  growth inhibition / %: 9.35
- compound: "C1CCC(NCC2CCCO2)CC1 (configuration not stated)"
  growth inhibition / %: 71

Q: For the compound O=[N+]([O-])O.[Sm] , what growth inhibition is on record?
Result: 3.95

Q: Now try N#CCCCl .
Result: -1.9

Q: Now try C/C=C/C(C)C1(CC)C(=O)NC(=S)NC1=O (configuration not stated) .
Result: 9.65

Q: Now try CC(CCc1ccccc1)NC(C)C(O)c1ccc(O)cc1 (configuration not stated) .
Result: 28.6

----------
assay-comment: NCI Yeast Anticancer Drug Screen. Data for the sgs1 mgt1 strain (AID 161);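 further: 0% = growth of cultures given vehicle only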
test-settings: S. cerevisiae sgs1 mgt1 strain, at 50.0 µM, active compounds read high
The panel holds about 79,000 compounds, 15% with a hit somewhere; the sample as a whole holds those more often.
Decide by growth inhibition: equal to or exceeding 10% means Satisfied, less means Not satisfied.

Examples with answers:
- molecule: "COc1ccc(CC(N)c2ccccc2)cc1OC (centres undefined)"
  assigned-class: "Not satisfied"
- molecule: "O=C(N=[C-]c1ccc[oH+]1)c1cccnc1.O=C(N=[C-]c1ccc[oH+]1)c1cccnc1.[Ni+2]"
  assigned-class: "Not satisfied"
- molecule: "CCOC(=O)/C(=C\\c1cccc(F)c1)[Se]c1ccccc1"
  assigned-class: "Satisfied"
- molecule: "CC(=O)OCC12CCC(C)=CC1OC1C(N(C)C)C(O)C2(C)C12CO2 (centres undefined)"
  assigned-class: "Satisfied"
- molecule: "CC(=O)NNC(=O)C(Cl)Cl"
  assigned-class: "Not satisfied"

Q: Has CCC(C)CC(C)N (centres undefined) a recorded growth inhibition greater than or equal to 10%?
Result: Satisfied

Q: Now try O=C1CC23c4ccccc4N4C(=O)CC5OCC=C6CN1C2CC6C5C43 (centres undefined) .
Result: Not satisfied

Q: Now try CC(=O)c1ccc([As](=O)(O)O)cc1 .
Result: Not satisfied

----------
assay-comment: NCI Yeast Anticancer Drug Screen. Data for the rad50 strain (AID 155);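 further: 0% = growth of vehicle-only cultures of the same strain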
test-settings: S. cerevisiae rad50 strain growth inhibition; at 50.0 µM
The panel holds about 79,000 compounds, 15% with a hit somewhere; the sample as a whole holds those more often. Calls of active or inactive are those of the source. Cut-off read from the data, not from the text of the source: active = growth inhibition above about 70%; inactive = the rest.
Choose one outcome from this list and give only that: t for active, f for inactive

Examples with answers:
- molecule: "O=P(c1cccc(C(F)(F)F)c1)(c1cccc(C(F)(F)F)c1)c1cccc(C(F)(F)F)c1.O=P(c1cccc(C(F)(F)F)c1)(c1cccc(C(F)(F)F)c1)c1cccc(C(F)(F)F)c1.[Cl][Sn]([Cl])([Cl])[Cl]"
  assigned-class: "f"
- molecule: "Cc1ccc2c(C)c3ccc4ccccc4c3c[n+]2c1"
  assigned-class: "t"
- molecule: "OCC(O)C(O)C(O)C1C[O][Sb][O]1 (stereo unspecified)"
  assigned-class: "f"
- molecule: "CCSc1nc(=[N+]2CCCC2)ss1"
  assigned-class: "t"
- molecule: "COc1cccc(OC)c1CCN"
  assigned-class: "f"

Q: Any idea what this test logged for CC(=O)[O][Sn]([CH3])([CH3])[c]1ccccc1 ?
Result: t

Q: Now try O=P(O)(O)C(O)c1ccncc1 (stereo unspecified) .
Result: f

Q: Now try C#CC(/C=C/Cl)(CC)OC(N)=O (stereo unspecified) .
Result: f

Q: Now try Cc1csc(CP(=O)(OC(C)C)OC(C)C)n1 .
Result: f

Q: Now try O=C1NC(=O)C(CC(Br)CBr)(c2ccccc2)C(=O)N1 (stereo unspecified) .
Result: f

Q: Now try CC(C)CCCC(C)CO[P+](=O)OCC(C)CCCC(C)C (stereo unspecified) .
Result: f

----------
assay-comment: NCI Yeast Anticancer Drug Screen. Data for the cln2 rad14 strain (AID 165);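 further: 0% = growth equal to vehicle treated cultures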
test-settings: S. cerevisiae cln2 rad14 strain, at 50.0 µM, active compounds read high
Compounds without any hit were thinned out: in the full panel of roughly 79,000, 15% have a hit. The source made the active and inactive calls. Rule as the data show it: active = growth inhibition above about 70%; inactive = the rest.
reported-endpoint: growth inhibition

- molecule: "C[N+](C)(C)CCP(=O)([O-])O"
  assay-result: "-13.1% (inactive)"

Q: For the molecule COc1cc2c(c(OC)c1OC)-c1ccc(O)cc1C(NC(C)=O)CC2 (configuration not stated) , what growth inhibition is on record?
Result: 17.4% (inactive)

Q: Now try O=C(O)C(CSC(c1ccccc1)c1ccccc1)N1C(=O)c2ccccc2C1=O (configuration not stated) .
Result: 43.3% (inactive)

Q: Now try N.N.N.N.O=S(=O)([O-])[O-].[Co+3].[OH3+].[OH3+] .
Result: 26.1% (inactive)

Q: Now try CSCCC([NH-])C(=O)O.CSCCC([NH-])C(=O)O.[Zn+2] (configuration not stated) .
Result: 99.2% (active)

Q: Now try S=C(SSC(=S)N(Cc1ccccc1)Cc1ccccc1)N(Cc1ccccc1)Cc1ccccc1 .
Result: -14.3% (inactive)

Q: Now try O=P(c1ccccc1)(c1ccccc1)c1ccccc1.[Cl][Sn]([c]1ccccc1)([c]1ccccc1)[c]1ccccc1 .
Result: 99.1% (active)

Q: Now try CN(C)S(=O)(=O)N(SC(F)(Cl)Cl)c1ccccc1 .
Result: 98.8% (active)

Q: Now try C1=CC2CCC[N-]C2N1.C1=CC2CCC[N-]C2N1.[I][Pt+2][I] (configuration not stated) .
Result: 98.2% (active)

Q: Now try COc1ccc(CCNC2(C#N)CCCCC2)cc1OC .
Result: 10.2% (inactive)

Q: Now try CN1CNC2C(=O)CCC2c2ccccc21 (configuration not stated) .
Result: -7.4% (inactive)

Q: Now try CCCCOOC(=O)c1ccccc1C(=O)OOCCCC .
Result: 98.7% (active)

----------
assay-comment: NCI Yeast Anticancer Drug Screen. Data for the cln2 rad14 strain (AID 165);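 further: 0% = growth equal to vehicle treated cultures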
test-settings: S. cerevisiae cln2 rad14 strain, at 50.0 µM, active compounds read high
About 79,000 compounds went through this panel and 15% of them were active in at least one assay; those are over-represented in the sample as a whole. Activity calls are given as the source filed them. Rule as the data show it: active = growth inhibition above about 70%; inactive = the rest.
// reported growth inhibition per item

Some compounds with known growth inhibition results, for comparison:
- compound: "CC(C)OP(=O)(OC(C)C)C(=O)Nc1cc(Cl)ccc1Cl"
  growth inhibition: "-31% (inactive)"
- compound: "CSCCC(NP(=S)(c1ccccc1)c1ccccc1)C(=O)O (centres undefined)"
  growth inhibition: "16.9% (inactive)"
- compound: "CC1OC(O[C@H]2C[C@@H](O)[C@]3(CO)[C@H]4[C@H](O)C[C@]5(C)[C@@H](C6=CC(=O)OC6)CC[C@]5(O)[C@@H]4CC[C@]3(O)C2)C(O)C(O)C1O (some centres undefined)"
  growth inhibition: "20.9% (inactive)"
- compound: "O=[N+]([O-])c1cc(Cl)ccc1O"
  growth inhibition: "14.2% (inactive)"
- compound: "CN(C)C(=O)OC1C(=O)N(C)c2ccc(Cl)cc2C2(c3ccccc3)N1C2(Cl)Cl (centres undefined)"
  growth inhibition: "-2.85% (inactive)"
- compound: "COC(=O)C1=C(C)N2[C@H](C(=O)O)CO[C@@]2(C)[C@H](C(=O)OC)[C@H]1c1cccc([N+](=O)[O-])c1"
  growth inhibition: "4.25% (inactive)"

Q: For the compound CCOP(=O)(OCC)C(C#N)Cc1ccco1 (centres undefined) , what growth inhibition is on record?
Result: -9.4% (inactive)

Q: Now try CN1CCCC(OC(=O)C(c2ccccc2)C2(O)CCCC2)C1 (centres undefined) .
Result: -27.9% (inactive)

Q: Now try CCCCCCCCCCBr .
Result: 25.1% (inactive)

Q: Now try CN1CCC2CC(=O)NC1(C)C2(C)C (centres undefined) .
Result: 4.5% (inactive)

Q: Now try CCC(=O)C(CCN1CCC(N2C(=O)C(CCC#N)c3ccccc32)CC1)(c1ccccc1)c1ccccc1 (centres undefined) .
Result: 3.15% (inactive)

Q: Now try CNN .
Result: 3.3% (inactive)

Q: Now try Cc1cc(C)c(C[N+](C)(C)C)c(C)c1C .
Result: 98.7% (active)

Q: Now try Cc1ccc(C2=NOP(c3ccccc3)(c3ccccc3)(c3ccccc3)C2)cc1 .
Result: -37.8% (inactive)

Q: Now try NC(=O)Cc1ccc([As]=O)cc1 (centres undefined) .
Result: 21% (inactive)

Q: Now try C/C=C1/C(=O)O[C@]23C=C[C@@H]4C(C(=O)OC)=CO[C@H](O[C@@H]12)[C@@H]43 .
Result: 89.5% (active)

Q: Now try O=P(O)(O)c1ccccc1 (tested in a mixture with another compound) .
Result: -35.1% (inactive)

Q: Now try CCC[CH2][Sn]1([CH2]CCC)[O]CCN2CCN(CC[O]1)CC2 .
Result: 41.6% (inactive)
